Values from ChEMBL document CHEMBL6182847

tested on: Epidermal growth factor receptor (Homo sapiens), P00533 [L858R,T790M,C797S]; details: dose 500.0 nM
Sequence (P00533 whole entry T790M/C797S/L858R): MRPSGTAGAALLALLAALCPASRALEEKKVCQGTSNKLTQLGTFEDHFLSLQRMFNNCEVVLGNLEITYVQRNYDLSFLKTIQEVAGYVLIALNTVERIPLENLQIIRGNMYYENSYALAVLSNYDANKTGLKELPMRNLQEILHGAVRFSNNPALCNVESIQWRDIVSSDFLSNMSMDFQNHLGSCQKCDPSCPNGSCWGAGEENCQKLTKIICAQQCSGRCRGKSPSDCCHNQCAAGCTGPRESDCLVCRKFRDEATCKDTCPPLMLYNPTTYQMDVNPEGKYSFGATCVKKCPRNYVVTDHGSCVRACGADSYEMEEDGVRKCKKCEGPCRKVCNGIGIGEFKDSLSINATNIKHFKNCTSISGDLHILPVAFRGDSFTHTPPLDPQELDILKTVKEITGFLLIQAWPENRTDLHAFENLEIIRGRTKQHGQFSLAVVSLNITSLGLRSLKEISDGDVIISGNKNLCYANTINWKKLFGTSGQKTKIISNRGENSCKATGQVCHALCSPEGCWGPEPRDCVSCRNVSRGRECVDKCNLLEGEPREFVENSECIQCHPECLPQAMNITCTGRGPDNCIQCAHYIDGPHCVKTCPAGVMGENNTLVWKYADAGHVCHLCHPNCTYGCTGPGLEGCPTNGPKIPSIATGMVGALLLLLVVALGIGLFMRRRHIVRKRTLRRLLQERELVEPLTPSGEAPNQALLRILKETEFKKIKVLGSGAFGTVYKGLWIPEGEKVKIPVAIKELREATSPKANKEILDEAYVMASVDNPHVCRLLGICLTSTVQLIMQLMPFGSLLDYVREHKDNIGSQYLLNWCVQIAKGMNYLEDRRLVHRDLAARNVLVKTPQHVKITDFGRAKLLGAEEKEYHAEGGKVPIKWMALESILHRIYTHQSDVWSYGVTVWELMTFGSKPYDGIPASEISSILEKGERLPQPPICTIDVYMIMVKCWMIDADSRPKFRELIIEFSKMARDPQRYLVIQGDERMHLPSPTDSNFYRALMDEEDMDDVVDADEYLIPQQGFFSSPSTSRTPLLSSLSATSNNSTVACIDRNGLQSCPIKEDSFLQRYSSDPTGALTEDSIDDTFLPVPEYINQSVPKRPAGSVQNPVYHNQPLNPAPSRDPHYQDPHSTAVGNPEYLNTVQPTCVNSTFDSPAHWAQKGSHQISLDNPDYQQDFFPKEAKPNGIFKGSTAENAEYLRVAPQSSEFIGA
Description: Inhibition of EGFR L858R/T790M/C797S mutant (unknown origin) at 500 nM relative to control
Returns Met if the recorded inhibition is greater than or equal to 80%, and Not met otherwise.

# example entries with known answers
[
  {
    "COMPOUND STRING": "C=C(C)C(=O)Nc1cnn(-c2ccnc(Nc3cc(C)c(N4CCC(N5CCN(C)CC5)CC4)cc3OC)n2)c1",
    "CLASS": "Met"
  },
  {
    "COMPOUND STRING": "CCS(=O)(=O)Nc1cnn(-c2ccnc(Nc3cc(C)c(N4CCC(N5CCN(C)CC5)CC4)cc3OC)n2)c1",
    "CLASS": "Met"
  },
  {
    "COMPOUND STRING": "C=CC(=O)Nc1cnn(-c2ccnc(Nc3cc(C)c(N4CCC(N(C)C)CC4)cc3OC)n2)c1",
    "CLASS": "Not met"
  },
  {
    "COMPOUND STRING": "CCCCS(=O)(=O)Nc1cnn(-c2ccnc(Nc3cc(C)c(N4CCC(N5CCN(C)CC5)CC4)cc3OC)n2)c1",
    "CLASS": "Met"
  },
  {
    "COMPOUND STRING": "C=CC(=O)Nc1cnn(-c2ccnc(Nc3cc(C)c(N4CCOCC4)cc3OC)n2)c1",
    "CLASS": "Not met"
  }
]

Exercise: Confirm if inhibition reported for the compound "C=CC(=O)Nc1cnn(-c2ccnc(Nc3cc(C)c(N4CCN(C(C)=O)CC4)cc3OC)n2)c1" is 80% or above.
Solution: Not met

Exercise: Confirm if inhibition reported for the compound "C=CC(=O)Nc1cnn(-c2ccnc(Nc3cc(C)c(N4CCN(S(C)(=O)=O)CC4)cc3OC)n2)c1" is 80% or above.
Solution: Not met

Exercise: Confirm if inhibition reported for the compound "COc1cc(N2CCC(N3CCN(C)CC3)CC2)c(C)cc1Nc1nccc(-n2cc(NC(=O)C3CC3)cn2)n1" is 80% or above.
Solution: Met

Exercise: Confirm if inhibition reported for the compound "COc1cc(N2CCC(N3CCN(C)CC3)CC2)c(C)cc1Nc1nccc(-n2cc(NC(C)=O)cn2)n1" is 80% or above.
Solution: Met

Exercise: Confirm if inhibition reported for the compound "COc1cc(N2CCC(N3CCN(C)CC3)CC2)c(C)cc1Nc1nccc(-n2cc(NS(C)(=O)=O)cn2)n1" is 80% or above.
Solution: Met

====

experiment: cells; conditions: Mus musculus, Ba/F3 EGFR-T790M/C797S/L858R
Description: Antiproliferative activity against mouse Ba/F3 EGFR-T790M/C797S/L858R cells
OBSERVED PROPERTY: IC50 (nM)
Just the number in nM, nothing appended.

[
  {
    "COMPOUND": "COc1cc(N2CCC(N3CCN(C)CC3)CC2)c(C)cc1Nc1nccc(-n2cc(NS(=O)(=O)C3CC3)cn2)n1",
    "IC50 / nM": 97.1
  },
  {
    "COMPOUND": "COc1cc(N2CCC(N3CCN(C)CC3)CC2)c(C)cc1Nc1nccc(-n2cc(NC(=O)C=C(C)C)cn2)n1",
    "IC50 / nM": 213
  },
  {
    "COMPOUND": "COc1cc(N2CCC(N3CCN(C)CC3)CC2)ccc1Nc1ncc(Cl)c(Nc2ccccc2P(C)(C)=O)n1 [BRIGATINIB]",
    "IC50 / nM": 542
  }
]

Exercise: Recorded IC50 of "COc1cc(N2CCC(N3CCN(C)CC3)CC2)c(C)cc1Nc1nccc(-n2cc(NC(=O)C3CC3)cn2)n1" , please.
Solution: 136

Exercise: Recorded IC50 of "COc1cc(N2CCC(N3CCN(C)CC3)CC2)c(C)cc1Nc1ncc(Br)c(-n2ccc(-c3ccccc3NS(=O)(=O)C3CC3)n2)n1" , please.
Solution: 340

Exercise: Recorded IC50 of "C=CC(=O)Nc1cnn(-c2ccnc(Nc3cc(C)c(N4CCC(N5CCN(C)CC5)CC4)cc3OC)n2)c1" , please.
Solution: 238
